Origin of the recorded values: PubChem BioAssay (Tox21)

# assay-system: Cytochrome P450 1A2 (Homo sapiens) (UniProt P05177)
# Sequence (P05177 whole entry, looked up): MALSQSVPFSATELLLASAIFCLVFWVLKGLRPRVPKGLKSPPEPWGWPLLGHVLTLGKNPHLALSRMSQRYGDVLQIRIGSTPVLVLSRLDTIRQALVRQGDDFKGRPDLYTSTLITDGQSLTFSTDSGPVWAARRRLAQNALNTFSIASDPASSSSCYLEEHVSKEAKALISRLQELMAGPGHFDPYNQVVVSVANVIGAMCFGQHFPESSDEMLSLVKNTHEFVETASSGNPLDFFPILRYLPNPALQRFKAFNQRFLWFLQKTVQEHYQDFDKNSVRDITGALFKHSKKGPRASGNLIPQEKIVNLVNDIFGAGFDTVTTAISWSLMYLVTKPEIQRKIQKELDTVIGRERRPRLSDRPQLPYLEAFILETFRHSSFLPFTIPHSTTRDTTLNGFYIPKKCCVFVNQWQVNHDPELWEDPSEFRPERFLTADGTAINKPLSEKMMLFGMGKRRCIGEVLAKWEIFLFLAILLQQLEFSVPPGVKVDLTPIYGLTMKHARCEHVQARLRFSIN
# assay-method-text: Cytochrome P450 Family 1 Subfamily A Member 2 (CYP1A2) small molecule antagonists: luciferase reporter qHTS assay (AID 1671199); also: nearly all actives have a fitted effect of over 50% in size
# condition-info: P450-Glo CYP1A2 enzyme, luciferin luminescence, 1 h; series mostly up to 115 µM
Inconclusive results are not listed. Activity calls are given as the source filed them. Calls follow the shape of the dose curve; as a rule, active = well fitted inhibition curve with a large enough effect in the repeat runs; inconclusive = weak or mixed curves; inactive = no such curve, though single readings can be large or run the other way.
Outcomes: YES = active, NO = inactive

{"molecule": "O=c1[nH][nH]c(=O)c2cc([N+](=O)[O-])ccc12", "discrete-label": "NO"}
{"molecule": "COc1cc(C(C)=O)ccc1OCCCN1CCC(c2noc3cc(F)ccc23)CC1", "discrete-label": "NO"}
{"molecule": "COc1cc(OC)c2ccc(=O)oc2c1", "discrete-label": "YES"}
{"molecule": "COc1ccc(/C=C/C(=O)c2ccc(OC)cc2OC)cc1", "discrete-label": "YES"}
{"molecule": "CCN(CC)CCOc1ccccc1C(=O)CCc1ccccc1", "discrete-label": "YES"}
{"molecule": "CNC1CCCN(c2c(F)cc3c(=O)c(C(=O)O)cn(C4CC4)c3c2OC)C1 (stereo unspecified)", "discrete-label": "NO"}
{"molecule": "Cc1oc(=O)oc1COC(=O)[C@@H]1N2C(=O)[C@@H](NC(=O)[C@H](N)c3ccccc3)[C@H]2SC1(C)C", "discrete-label": "NO"}
{"molecule": "O=C(O)CCC(=O)OC[C@@H](NC(=O)C(Cl)Cl)[C@H](O)c1ccc([N+](=O)[O-])cc1", "discrete-label": "NO"}
{"molecule": "COC(OC)OC", "discrete-label": "NO"}
{"molecule": "CN1CCCN(C(c2ccccc2)c2ccc(Cl)cc2)CC1 (stereo unspecified)", "discrete-label": "NO"}
{"molecule": "CC(C)CC(O)CC(C)C", "discrete-label": "NO"}
{"molecule": "CCN(CC)C(=O)/C(C#N)=C/c1cc(O)c(O)c([N+](=O)[O-])c1", "discrete-label": "NO"}
{"molecule": "Nc1ccc(F)cc1", "discrete-label": "NO"}
{"molecule": "CNc1c2c(nn1C)CCCC2", "discrete-label": "NO"}
{"molecule": "O=C1OC(=O)c2c(Br)c(Br)c(Br)c(Br)c21", "discrete-label": "NO"}
{"molecule": "Cc1cc([N+](=O)[O-])ccc1N", "discrete-label": "YES"}
{"molecule": "[Cl][Nd]([Cl])[Cl]", "discrete-label": "NO"}
{"molecule": "CN(C)CC/C=C1\\c2ccccc2Sc2ccc(Cl)cc21", "discrete-label": "YES"}
{"molecule": "CCN(CC)c1ccc(C(=C2C=CC(=[N+](CC)CC)C=C2)c2ccc(S(=O)(=O)O)cc2S(=O)(=O)[O-])cc1", "discrete-label": "YES"}
{"molecule": "O=C(NC(Cc1cc(=O)[nH]c2ccccc12)C(=O)O)c1ccc(Cl)cc1 (stereo unspecified)", "discrete-label": "NO"}
{"molecule": "CCC(CO)(CO)[N+](=O)[O-]", "discrete-label": "NO"}
{"molecule": "CC(=O)C(C)=O", "discrete-label": "NO"}
{"molecule": "CCOC(=O)c1c(N)sc2c1CCN(Cc1ccccc1)C2", "discrete-label": "YES"}
{"molecule": "CCC(=O)OCc1ccc(OC)cc1", "discrete-label": "YES"}
{"molecule": "CCC(C)(C)C(=O)O", "discrete-label": "NO"}
{"molecule": "CC(=O)NNC(C)=O", "discrete-label": "NO"}
